- Experimental target: Orexin type 1 (OX1R) receptor (Homo sapiens, UniProt O43613)
- Sequence (O43613 1-425): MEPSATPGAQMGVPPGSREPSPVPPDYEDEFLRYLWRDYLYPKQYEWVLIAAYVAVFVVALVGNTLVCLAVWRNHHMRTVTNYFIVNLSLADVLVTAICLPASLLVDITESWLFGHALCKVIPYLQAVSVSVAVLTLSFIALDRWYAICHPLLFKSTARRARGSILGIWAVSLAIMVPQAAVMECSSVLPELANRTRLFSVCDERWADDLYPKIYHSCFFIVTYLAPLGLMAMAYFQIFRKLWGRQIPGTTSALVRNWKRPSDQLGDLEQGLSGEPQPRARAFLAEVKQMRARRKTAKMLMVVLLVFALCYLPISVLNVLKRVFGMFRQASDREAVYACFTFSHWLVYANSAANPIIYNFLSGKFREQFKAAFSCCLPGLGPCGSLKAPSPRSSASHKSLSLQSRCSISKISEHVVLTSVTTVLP
- Assay overview: In vitro orexin antagonism assay: intracellular calcium measurement (FLIPR), orexin-A 3 nM as agonist
- Measurement setup: first value of IC50/Kb cell
Labelling: IC50 reported below 20 nM becomes rule met; at or above becomes rule not met.

Please review the following examples before continuing.
smiles=O=C(c1c(-c2ncccn2)nn2ccccc12)N1CCC[C@H]1Cn1ccc(-c2ccc(F)cn2)n1 experimental_target="Orexin type 1 (OX1R) receptor (Homo sapiens, UniProt O43613)" label="rule met"
smiles=C[C@@]1(COc2ccc(C(F)(F)F)cn2)CCCN1C(=O)c1nc2ccccn2c1-c1ccccc1 experimental_target="Orexin type 1 (OX1R) receptor (Homo sapiens, UniProt O43613)" label="rule not met"

Q. Determine if `O=C(c1nn2c(c1-c1ccccc1)OCCC2)N1CCC[C@H]1Cn1ccc(-c2ccccn2)n1` shows IC50 strictly lower than 20 nM.
A. rule met

Q. // repeat for `O=C(c1nn2c(c1-c1ccccn1)OCCC2)N1CCC[C@H]1Cn1ccc(-c2ccccn2)n1` and report
A. rule met

Q. Queued: `C[C@@]1(COc2cnc(C(F)(F)F)cn2)CCCN1C(=O)c1nc2ccccn2c1-c1ccccc1`
A. rule not met

Q. Now this one: `O=C(c1c(-c2ccccc2F)nn2ccccc12)N1CCC[C@H]1Cn1cc(-c2ccccc2)cn1`
A. rule met

Q. Also need `O=C(c1c(-c2ccccc2)nc2cc(C(F)(F)F)ccn12)N1CCC[C@H]1Cn1cc(-c2ccc(F)cn2)cn1` , thanks.
A. rule not met

----------
- Experimental target: human orexin-2 receptor (OX2R) (Homo sapiens, UniProt O43614)
- Construct: expressed in transfected cells; host or cells: CHO cells (G418 selection)
- Sequence (O43614 whole entry): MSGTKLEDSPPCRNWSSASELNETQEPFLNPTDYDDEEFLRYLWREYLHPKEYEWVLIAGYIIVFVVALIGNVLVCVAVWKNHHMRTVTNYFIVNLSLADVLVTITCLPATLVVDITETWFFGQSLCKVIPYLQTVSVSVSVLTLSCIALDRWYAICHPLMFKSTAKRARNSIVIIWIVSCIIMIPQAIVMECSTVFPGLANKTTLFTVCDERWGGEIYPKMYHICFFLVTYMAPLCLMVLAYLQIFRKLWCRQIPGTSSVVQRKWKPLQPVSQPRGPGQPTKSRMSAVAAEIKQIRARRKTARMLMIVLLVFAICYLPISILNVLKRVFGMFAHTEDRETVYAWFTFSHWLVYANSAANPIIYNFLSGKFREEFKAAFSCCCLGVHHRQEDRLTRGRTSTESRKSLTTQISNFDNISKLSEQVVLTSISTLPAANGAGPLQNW
- Assay overview: In vitro orexin antagonism assay: intracellular calcium measurement (FLIPR), orexin-A 3 nM as agonist
- Assay type: cell-based
- Measurement setup: read-out: OX2R, % Inh. @ 1 uM
Recorded endpoint: inhibition at 1 µM (%)
Give the value, in units of %, as a plain number.

Here is how some molecules turned out for inhibition at 1 µM.
smiles=O=C(c1nc2ccccn2c1-c1ccccn1)N1CCC[C@H]1Cn1cc(-c2ccccn2)cn1 value=39
smiles=O=C(c1c(-c2ccccc2)nc2cc(C(F)(F)F)ccn12)N1CCC[C@H]1Cn1cc(-c2ccccc2)cn1 value=78
smiles=C[C@@]1(COc2ccc(C(F)(F)F)cn2)CCCN1C(=O)c1c(-c2ccccc2)nn2cccnc12 value=46
smiles=O=C(c1c(-c2ccccc2)nn2ccccc12)N1[C@@H]2CC[C@@H](C2)[C@H]1COc1ccc(C(F)(F)F)cn1 value=66
smiles=O=C(c1c(-c2ncccn2)nn2ccccc12)N1CCC[C@H]1Cn1cc(-c2ccc(F)cn2)cn1 value=66
smiles=O=C(c1c(-c2ccccc2)nn2c1COCC2)N1[C@@H]2CC[C@@H](C2)[C@H]1COc1ccc(C(F)(F)F)cn1 value=23

Next item in the queue.
Q. Look up inhibition at 1 µM for this molecule: `O=C(c1nc2ccccn2c1-c1ccccc1)N1[C@H](Cn2ccc(-c3ccc(F)cn3)n2)C[C@@H]2C[C@@H]21`
A. 24

----------
- Experimental target: human orexin-2 receptor (OX2R) (Homo sapiens, UniProt O43614)
- Construct: expressed in transfected cells; host or cells: CHO cells (G418 selection)
- Assay overview: In vitro orexin antagonism assay: intracellular calcium measurement (FLIPR), orexin-A 3 nM as agonist
- Assay type: cell-based
- Measurement setup: read-out: OX2R, % Inh. @ 1 uM
met means recorded inhibition at 1 µM is 40% or above; not met means it is below 40%.

smiles=O=C(c1c(-c2ccccc2)nc2cc(C(F)(F)F)ccn12)N1CCC[C@H]1Cn1ccc(-c2ccc(F)cc2)n1 label=met
smiles=O=C(c1c(-c2ncccn2)nn2ccccc12)N1CCC[C@H]1Cn1ccc(-c2ccccn2)n1 label=met
smiles=O=C(c1nn2c(c1-c1ccccc1)COCC2)N1CCC[C@H]1Cn1ccc(-c2ccccc2)n1 label=met

Q. Determine whether measured inhibition at 1 µM meets or exceeds 40% for `O=C(c1nc2ccccn2c1-c1ccccc1)N1CCC[C@H]1Cc1nc(-c2ccccn2)no1`
A. not met

Q. Can you check `O=C(c1c(-c2ncccn2)nn2ccccc12)N1[C@@H]2CC[C@@H](C2)[C@H]1COc1ccc(C(F)(F)F)cn1` next?
A. not met

Q. Another: `O=C(c1nn2c(c1-c1ccccc1)OCCC2)N1CCC[C@H]1Cn1ccc(-c2ccccn2)n1`
A. met

Q. Check `O=C(c1c(-c2ncccn2)nn2ccccc12)N1CCC[C@H]1COc1ccc(C(F)(F)F)cn1` too.
A. not met

Q. Continue with `O=C(c1nc2n(c1-c1ccccn1)CCOC2)N1CCC[C@H]1Cc1nc(-c2ccc(F)cn2)no1`
A. not met

Q. Would you mind doing `O=C(c1nn2c(c1-c1ccccc1)COCC2)N1CCC[C@H]1Cn1ccc(-c2ccccn2)n1` as well?
A. met

Q. Repeat for the following molecule: `O=C(c1c(-c2ncccn2)nn2ccccc12)N1CCC[C@H]1Cn1ccc(-c2ccc(F)cn2)n1`
A. met

Q. Now the same for `[2H]C1([2H])CC[C@@]([2H])(Cn2ccc(-c3ccc(F)cc3)n2)N1C(=O)c1c(-c2ccccc2)nc2ccc(F)cn12`
A. met

Q. Subsequent entry: `O=C(c1nn2c(c1-c1ccccc1)COCC2)N1CCC[C@H]1COc1ccc(C(F)(F)F)cn1`
A. not met

Q. And what about the molecule `O=C(c1c(-c2ccccc2)nn2c1COCC2)N1CCC[C@H]1Cn1cc(-c2ccccn2)cn1` ?
A. not met

Q. Cool, now `O=C(c1nn2c(c1-c1ccccn1)CCOC2)N1CCC[C@H]1Cc1nc(-c2ccccn2)no1`
A. not met

Q. Again, but for `O=C(c1c(-c2ccccn2)nn2ccccc12)N1CCC[C@H]1Cc1nc(-c2ccccn2)no1`
A. met

----------
- Experimental target: Orexin type 1 (OX1R) receptor (Homo sapiens)
- Construct: expressed in transfected cells; host or cells: CHO cells (G418 selection)
- Sequence (O43613 1-425): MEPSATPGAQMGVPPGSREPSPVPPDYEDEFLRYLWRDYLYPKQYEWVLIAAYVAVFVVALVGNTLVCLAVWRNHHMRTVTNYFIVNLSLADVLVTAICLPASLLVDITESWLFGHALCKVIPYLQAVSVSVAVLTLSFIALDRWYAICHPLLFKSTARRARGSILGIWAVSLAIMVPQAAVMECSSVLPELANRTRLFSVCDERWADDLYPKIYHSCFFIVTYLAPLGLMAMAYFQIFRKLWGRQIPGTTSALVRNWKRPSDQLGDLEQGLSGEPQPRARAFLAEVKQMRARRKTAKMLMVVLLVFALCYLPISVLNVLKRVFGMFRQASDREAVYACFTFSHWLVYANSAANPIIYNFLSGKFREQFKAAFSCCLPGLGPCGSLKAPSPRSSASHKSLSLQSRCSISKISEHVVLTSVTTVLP
- Assay overview: In vitro orexin antagonism assay: intracellular calcium measurement (FLIPR), orexin-A 3 nM as agonist
- Type: cell-based
- Measurement setup: second value of IC50/Kb cell
Kb by entry:
The reply should be a number in nM, with the unit left off.

Here are 5 molecules together with their reported answers.
smiles=O=C(c1nn2c(c1-c1ccccn1)COCC2)N1CCC[C@H]1COc1ccc(C(F)(F)F)cn1 value_units=nM value=1
smiles=O=C(c1c(-c2ncccn2)nn2ccccc12)N1CCC[C@H]1Cc1nc(-c2ccccn2)no1 value_units=nM value=87
smiles=O=C(c1nn2ccccc2c1-c1ccccc1)N1CC[C@H]1Cn1ccc(-c2ccc(F)cn2)n1 value_units=nM value=140
smiles=O=C(c1c(-c2ccccc2)nc2ccc(F)cn12)N1[C@H](Cn2ccc(-c3ccc(F)cc3)n2)C[C@@H]2C[C@@H]21 value_units=nM value=33
smiles=O=C(c1c(-c2ccccc2F)nn2c1COCC2)N1CCC[C@H]1Cn1cc(-c2ccccc2)cn1 value_units=nM value=13

Q. Recorded Kb for `O=C(c1c(-c2ccccn2)nn2ccccc12)N1CCC[C@H]1Cn1ccc(-c2ccccn2)n1` , please?
A. 2

Q. Follow-up item: `C[C@@]1(COc2ccc(C(F)(F)F)cn2)CCCN1C(=O)c1nn2c(c1-c1ccccc1)COCC2`
A. 56
